Biological target: PPARγ (Homo sapiens)
Sequence (P37231 238-503 limits assumed): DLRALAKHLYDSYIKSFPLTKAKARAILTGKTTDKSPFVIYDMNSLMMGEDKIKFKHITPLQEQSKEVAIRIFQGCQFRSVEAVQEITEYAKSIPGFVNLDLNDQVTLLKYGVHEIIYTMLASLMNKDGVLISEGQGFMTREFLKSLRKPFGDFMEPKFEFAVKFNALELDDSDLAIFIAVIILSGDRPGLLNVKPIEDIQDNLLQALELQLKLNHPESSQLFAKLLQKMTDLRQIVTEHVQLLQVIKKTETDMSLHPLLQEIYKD
Settings: HepG2 HG19 cells, 24 h; read-out: EC50 by Factorial NR, PPARγ
attribute_measured: pEC50
Just so you know, pEC50 here is -log10 of the concentration in molar units; reply with that number alone.

Report pEC50 on PPARγ (Homo sapiens) for this entry: Cc1cc(SCc2sc(-c3ccc(C(F)(F)F)c(F)c3)nc2C)ccc1OCC(=O)O [GW0742]
5.55

###

Give measured pEC50 for each item. Keep answers brief.
target: PR (Homo sapiens, UniProt P06401); settings: HepG2 HG19 cells, 24 h; read-out: EC50 by Factorial NR, PR
Sequence (P06401 679-913 limits assumed): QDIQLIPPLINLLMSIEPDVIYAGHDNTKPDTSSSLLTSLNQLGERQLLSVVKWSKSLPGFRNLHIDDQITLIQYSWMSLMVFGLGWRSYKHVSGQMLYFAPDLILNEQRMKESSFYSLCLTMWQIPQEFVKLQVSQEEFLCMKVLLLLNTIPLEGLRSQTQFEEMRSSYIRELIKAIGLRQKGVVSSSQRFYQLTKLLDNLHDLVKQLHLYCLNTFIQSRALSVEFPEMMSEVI
Remember the convention: pEC50 equals -log10 of concentration in molar.

// fetch pEC50; item: C#C[C@]1(O)CC[C@H]2[C@@H]3CCC4=CC(=O)CC[C@@H]4[C@H]3C(=C)C[C@@]21CC ; system: PR (Homo sapiens, UniProt P06401)
10.32

Identify measured pEC50 obtained with PR (Homo sapiens, UniProt P06401) for CC(=O)[C@@]1(O)CC[C@H]2[C@@H]3C=C(C)C4=CC(=O)CC[C@@H]4[C@H]3CC[C@@]21C .
9.31

Enter recorded pEC50 with PR (Homo sapiens, UniProt P06401) for C#C[C@]1(OC(C)=O)CC[C@H]2[C@@H]3CCC4=C[C@@H](OC(C)=O)CC[C@@H]4[C@H]3CC[C@@]21C [ETD, ethynodiol diacetate] here.
9.02

Print PR (Homo sapiens, UniProt P06401) pEC50 for C#C[C@]1(O)C=C[C@H]2[C@@H]3CCC4=CC(=O)CC[C@@H]4[C@H]3CC[C@@]21CC .
10.28

###

format: cell-based; conditions: Homo sapiens, read-out: EC50 (Fig. S4), NR endpoint not given
attribute_measured: EC50 (nM)
Dear colleague, please return just the value in nM, with no unit written.

Give EC50 for C=C(c1ccc(C(=O)O)cc1)c1cc2c(cc1C)C(C)(C)CCC2(C)C
5.4
